The measurements presented in this section are drawn from patent US20080139664A1.

# System: bovine serum albumin (BSA)
# Assay Method Text: Maillard fluorescence-based assay of AGEs formation, IC50 determination (BSA + D-ribose)
# Measurement Context: inhibition of Maillard fluorescence development; 0.075 mM BSA, 50 mM D-ribose, 37° C., 5 days
Values of IC50 strictly less than 400 µM map to YES, and values of at least 400 µM map to NO.

Worked cases, answers included:
Identify whether the compound Nc1ccc(C(=O)O)c(O)c1 [4-Amino-salicylic acid] records IC50 below 400 µM. NO

Identify whether the compound Cc1cc(N)c2ccccc2c1O [Vitamin K5] records IC50 below 400 µM. YES

Identify whether the compound O=c1cc(-c2ccc(O)c(O)c2)oc2ccccc12 [3′.4′-Dihydroxyflavone] records IC50 below 400 µM. NO

Identify whether the compound Cn1c([N+](=O)[O-])cnc1COC(N)=O [Ronidazole] records IC50 below 400 µM. NO

Identify whether the compound Oc1cc(O)c2c(c1)O[C@H](c1ccc(O)c(O)c1)[C@H](O)C2 [(−)-Epicatechin] records IC50 below 400 µM. YES

More entries:
Identify whether the compound CN1CC(O)C2=C/C(=N/NC(N)=O)C(=O)C=C21 (stereo not drawn) [Carbazochrome] records IC50 below 400 µM. NO

Identify whether the compound C=CCN1CC[C@]23c4c5ccc(O)c4O[C@H]2/C(=N/N=C2\CC[C@@]4(O)[C@H]6Cc7ccc(O)c8c7[C@@]4(CCN6CC=C)[C@H]2O8)CC[C@@]3(O)[C@H]1C5 [Naloxonazine] records IC50 below 400 µM. NO

Identify whether the compound COCC(N)c1ccc(O)c(O)c1 (stereo not drawn) records IC50 below 400 µM. YES

Identify whether the compound O=c1c(O)c(-c2ccc(O)c(O)c2)oc2cc(O)cc(O)c12 [Quercetin] records IC50 below 400 µM. YES

Identify whether the compound O=c1cc(-c2ccc(O)c(O)c2)oc2c(O)c(O)ccc12 [7,8,3′,4′-Tetrahydroxyflavone] records IC50 below 400 µM. YES
